The values you see were collected from the RNAGym collection of RNA variant scans (doi:10.1093/molbev/msab373).

B1: Azoarcus group I ribozyme (parent)
chain: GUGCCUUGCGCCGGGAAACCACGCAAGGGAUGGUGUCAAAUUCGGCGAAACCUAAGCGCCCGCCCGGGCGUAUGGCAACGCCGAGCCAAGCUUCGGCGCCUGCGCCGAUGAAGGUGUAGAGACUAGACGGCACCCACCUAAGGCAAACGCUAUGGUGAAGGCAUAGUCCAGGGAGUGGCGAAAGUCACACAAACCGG

- Variants of: B1
- Assay info: reverse-splicing fitness (ratio to wild type); higher = more active; in vitro selection; Mg2+ level not given
# reverse-splicing fitness values compiled below
Give the value as a plain number.

| Mutation | Endpoint | Recorded value |
| --- | --- | --- |
| A120U A145G C150A U176A | reverse-splicing fitness | 0.222 |
| C82U A111G A120G A145G C150G C169G | reverse-splicing fitness | 0.00721 |
| A111U A145G | reverse-splicing fitness | 0.921 |
| C82A A111G C150U U176G | reverse-splicing fitness | 0.0264 |
| C82A A120G A145G C169G | reverse-splicing fitness | 0.0223 |

Exam item: Check the records and state reverse-splicing fitness for C82U A111C A120G U176G
Marked response: 0.00514

Exam item: State its reverse-splicing fitness: C82G A111C A120G A145C C150U C169A U176A
Marked response: 0.0113

Exam item: Please give measured reverse-splicing fitness of the following entry: A111G A120G A145G C150G C169U U176A
Marked response: 0.012

Exam item: Determine from records and report reverse-splicing fitness for C82U A111G A120G C150U C169G U176G
Marked response: 0.00447

Exam item: Given A111G A145U C150U U176A , respond with its reverse-splicing fitness.
Marked response: 0.677

Exam item: Read off the recorded reverse-splicing fitness for C82G A145U C150U C169G U176G
Marked response: 0.00545

Exam item: Return the recorded reverse-splicing fitness value; entry: A120C A145G C150G C169G
Marked response: 0.00987

Exam item: Specify reverse-splicing fitness for C82G A111C A120C A145C C150A C169G U176C and stop.
Marked response: 0.0215

Exam item: Identify reverse-splicing fitness associated with the variant A120U A145C U176C
Marked response: 0.452
